Value source: patent US20240309070A1

Target: T1, VV B5 monomer protein (Wyeth Vaccinia strain B5 with C-terminal AVI tag and HIS6 tag) (Vaccinia virus, Wyeth strain, UniProt O57254 18-279)
T1 construct: also called B5 protein; VV B5 protein
Test: BLI (Octet), antibody on AHC sensor, B5 monomer analyte
So basically: koff at 0.0007 s⁻¹ or higher? That is label 1. Lower than 0.0007 s⁻¹? That is label 0.

Field: example entries. Status: answers known.
Problem: Does the reported koff for A048-H4L1 (antibody, V domains shown) VH: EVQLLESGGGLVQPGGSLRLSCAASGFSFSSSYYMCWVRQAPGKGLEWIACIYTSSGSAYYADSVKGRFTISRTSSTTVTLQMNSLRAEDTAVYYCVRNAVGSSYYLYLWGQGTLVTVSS VL: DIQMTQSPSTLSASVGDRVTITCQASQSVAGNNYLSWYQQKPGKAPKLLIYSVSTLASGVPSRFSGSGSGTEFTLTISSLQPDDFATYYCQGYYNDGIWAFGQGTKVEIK fall at or above the 0.0007 s⁻¹ mark?
Result: label 0

Problem: Please indicate if the recorded koff for A048-H1L2 (antibody, V domains shown) VH: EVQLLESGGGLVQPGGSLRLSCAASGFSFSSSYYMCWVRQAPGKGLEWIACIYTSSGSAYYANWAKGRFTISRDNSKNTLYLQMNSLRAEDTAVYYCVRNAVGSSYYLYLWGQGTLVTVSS VL: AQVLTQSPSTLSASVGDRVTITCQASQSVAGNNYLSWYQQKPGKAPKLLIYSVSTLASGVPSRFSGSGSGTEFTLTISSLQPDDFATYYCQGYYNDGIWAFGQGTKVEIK meets or exceeds 0.0007 s⁻¹.
Result: label 1

Problem: Given the entry A048-H2L1 (antibody, V domains shown) VH: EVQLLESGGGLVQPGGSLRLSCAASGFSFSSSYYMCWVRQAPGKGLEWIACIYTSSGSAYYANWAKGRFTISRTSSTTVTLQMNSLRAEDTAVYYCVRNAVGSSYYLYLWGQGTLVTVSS VL: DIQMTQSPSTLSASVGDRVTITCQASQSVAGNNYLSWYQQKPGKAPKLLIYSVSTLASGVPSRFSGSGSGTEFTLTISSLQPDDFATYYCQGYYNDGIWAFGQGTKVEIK , answer whether its koff meets or surpasses 0.0007 s⁻¹.
Result: label 0

Next:
Problem: Hi team, for A048-H4L2 (antibody, V domains shown) VH: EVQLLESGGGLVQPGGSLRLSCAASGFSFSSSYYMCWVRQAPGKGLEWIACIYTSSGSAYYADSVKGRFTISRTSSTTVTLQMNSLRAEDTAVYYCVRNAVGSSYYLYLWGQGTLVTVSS VL: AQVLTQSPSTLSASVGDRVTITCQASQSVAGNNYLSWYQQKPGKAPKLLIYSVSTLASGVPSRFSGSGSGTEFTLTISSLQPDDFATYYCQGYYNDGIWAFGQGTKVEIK , is the recorded koff at or above 0.0007 s⁻¹?
Result: label 0

Problem: Does koff meet or surpass 0.0007 s⁻¹ for A048-H3L2 (antibody, V domains shown) VH: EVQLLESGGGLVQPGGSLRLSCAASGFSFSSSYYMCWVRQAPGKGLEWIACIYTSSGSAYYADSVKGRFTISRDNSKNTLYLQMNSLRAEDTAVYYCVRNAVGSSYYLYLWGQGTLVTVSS VL: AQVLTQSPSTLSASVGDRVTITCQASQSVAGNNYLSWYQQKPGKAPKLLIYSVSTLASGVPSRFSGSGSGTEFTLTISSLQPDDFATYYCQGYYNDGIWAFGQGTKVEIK ?
Result: label 0

Problem: Does the binder A048-H5L5 (antibody, V domains shown) VH: QVTLKESGPVLVKPTETLTLTCTASGFSFSSSYYMCWVRQPPGKALEWIACIYTSSGSAYYANWAKGRFTISRDTSKSQVVLTMTNMDPVDTATYFCVRNAVGSSYYLYLWGQGTLVTVSS VL: EQVLTQSPATLSLSPGERATLSCQASQSVAGNNYLSWYQQKPGQAPRLLIYSVSTLASGIPARFSGSGSGTDFTLTISSLEPEDFAVYYCQGYYNDGIWAFGQGTKLEIK have recorded koff that is 0.0007 s⁻¹ or more?
Result: label 0

Problem: Form field: koff at least 0.0007 s⁻¹? Entry: A048-H2L4 (antibody, V domains shown) VH: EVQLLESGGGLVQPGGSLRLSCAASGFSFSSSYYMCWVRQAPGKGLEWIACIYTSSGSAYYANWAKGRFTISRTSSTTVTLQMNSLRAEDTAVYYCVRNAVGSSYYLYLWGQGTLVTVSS VL: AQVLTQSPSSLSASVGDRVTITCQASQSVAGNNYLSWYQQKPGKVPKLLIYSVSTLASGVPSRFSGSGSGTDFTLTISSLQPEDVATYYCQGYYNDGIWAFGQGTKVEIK
Result: label 0
